Cited source for all entries: the supplement of paper PMC8728848

# target: Fuc(a1-2)[GalNAc(a1-3)]Gal(b1-4)Glc
# procedure_summary: glycan array binding signal (z-score within array); higher = stronger binding
# reported_conditions: glycan notation: IUPAC condensed, linker removed
This is one part of a sample in which the strongest signals are shown more often than they occur.
readout_kind: glycan array binding signal (z-score)

Worked set:
binder | test_result
OrysaEULS2 (Oryza sativa) (protein) MVYCRANPNYAMTARNGAVVLAPANPKDEYQHWIKDMRWSTSIKDEEGYPAFALVNKATGQAIKHSLGQSHPVRLVPYNPEVMDESVLWTESRDVGNGFRCIRMVNNIYLNFDAFHGDKYHGGVRDGTDIVLWKWCEGDNQRWKIQPYYILEQKLISEEDLNSAVDHHHHHH | -0.205
MGL6A (Homo sapiens) (protein) MTRTYENFQYLENKVKVQGFKNGPLPLQSLLQRLCSGPCHLLLSLGLGLLLLVIICVVGFQNSKFQRDLVTLRTDFSNFTSNTVAEIQALTSQGSSLEETIASLKAEVEGFKQERQAVHSEMLLRVQQLVQDLKKLTCQVATLNNNGEEASTEGTCCPVNWVEHQDSCYWFSHSGMSWAEAEKYCQLKNAHLVVINSREEQNFVQKYLGSAYTWMGLSDPEGAWKWVDGTDYATGFQNWKPGQPDDWQGHGLGGGEDCAHFHPDGRWNDDVCQRPYHWVCEAGLGQTSQESH | 0.534
AICL (Homo sapiens), Q92478 (protein) MMTKHKKCFIIVGVLITTNIITLIVKLTRDSQSLCPYDWIGFQNKCYYFSKEEGDWNSSKYNCSTQHADLTIIDNIEEMNFLRRYKCSSDHWIGLKMAKNRTGQWVDGATFTKSFGMRGSEGCAYLSDDGAATARCYTERKWICRKRIH | -0.265

Switching to the query record.
Query (binder): CLECb-Precomplexed (Mus musculus), P43025 (protein) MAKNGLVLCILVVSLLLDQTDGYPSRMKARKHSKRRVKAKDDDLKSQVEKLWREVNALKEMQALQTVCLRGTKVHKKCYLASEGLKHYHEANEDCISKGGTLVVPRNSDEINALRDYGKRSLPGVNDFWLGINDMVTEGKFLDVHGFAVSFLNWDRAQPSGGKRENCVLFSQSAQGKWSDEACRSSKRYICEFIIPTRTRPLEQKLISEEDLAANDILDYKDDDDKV ; field requested: glycan array binding signal (z-score)
-0.431
